Target: Cathepsin C (Dipeptidyl peptidase 1) (Homo sapiens)
Sequence (P53634 25-134 limits assumed): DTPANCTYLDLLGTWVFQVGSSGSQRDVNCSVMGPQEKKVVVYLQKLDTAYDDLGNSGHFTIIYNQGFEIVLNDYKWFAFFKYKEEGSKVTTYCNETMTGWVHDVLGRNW
Sequence (P53634 231-394 limits assumed): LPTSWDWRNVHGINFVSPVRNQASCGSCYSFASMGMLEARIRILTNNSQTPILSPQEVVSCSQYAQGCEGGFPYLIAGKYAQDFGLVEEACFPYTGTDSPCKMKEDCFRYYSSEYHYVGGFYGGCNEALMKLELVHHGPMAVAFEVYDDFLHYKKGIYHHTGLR
Sequence (P53634 395-463 limits assumed): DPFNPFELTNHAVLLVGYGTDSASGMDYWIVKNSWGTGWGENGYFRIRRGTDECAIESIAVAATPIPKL
Test: Inhibition of Cathepsin C (unknown origin) at 10 uM
Quantity Name: inhibition at 10 µM (%)

[[record]]
molecule = "CCN(CC)Cc1ccc(/C=C/c2ccccc2C(=O)NC(Cc2ccccc2)C(=O)C(N)=O)cc1 (stereo unspecified)"
obs_value = 94


----------
Experiment: Inhibition of human liver cathepsin L using Z-Phe-Arg-AMC as substrate by kinetic fluorescence assay
Below, each of the molecules is paired with its reported Ki value.
Quantity Name: Ki (nM)

[[record]]
molecule = "NC(=O)C(=O)C(Cc1ccccc1)NC(=O)c1cccnc1N1CCN(c2ccccc2)CC1 (centres undefined)"
unit_name = "nM"
obs_value = 491

[[record]]
molecule = "CCN(CC)Cc1ccc(/C=C/c2ccccc2C(=O)NC(Cc2ccccc2)C(=O)C(N)=O)cc1 (centres undefined)"
unit_name = "nM"
obs_value = 137

[[record]]
molecule = "NC(=O)C(=O)C(Cc1ccccc1)NC(=O)c1cccnc1N1CCC(c2ccccc2)C1 (centres undefined)"
unit_name = "nM"
obs_value = 39

[[record]]
molecule = "CCN(CC)Cc1ccc(/C=C/c2ncccc2C(=O)NC(Cc2ccccc2)C(=O)C(N)=O)cc1 (centres undefined)"
unit_name = "nM"
obs_value = 204


----------
Target: Calpain-1 catalytic subunit (Homo sapiens, UniProt P07384)
Sequence (P07384 whole entry): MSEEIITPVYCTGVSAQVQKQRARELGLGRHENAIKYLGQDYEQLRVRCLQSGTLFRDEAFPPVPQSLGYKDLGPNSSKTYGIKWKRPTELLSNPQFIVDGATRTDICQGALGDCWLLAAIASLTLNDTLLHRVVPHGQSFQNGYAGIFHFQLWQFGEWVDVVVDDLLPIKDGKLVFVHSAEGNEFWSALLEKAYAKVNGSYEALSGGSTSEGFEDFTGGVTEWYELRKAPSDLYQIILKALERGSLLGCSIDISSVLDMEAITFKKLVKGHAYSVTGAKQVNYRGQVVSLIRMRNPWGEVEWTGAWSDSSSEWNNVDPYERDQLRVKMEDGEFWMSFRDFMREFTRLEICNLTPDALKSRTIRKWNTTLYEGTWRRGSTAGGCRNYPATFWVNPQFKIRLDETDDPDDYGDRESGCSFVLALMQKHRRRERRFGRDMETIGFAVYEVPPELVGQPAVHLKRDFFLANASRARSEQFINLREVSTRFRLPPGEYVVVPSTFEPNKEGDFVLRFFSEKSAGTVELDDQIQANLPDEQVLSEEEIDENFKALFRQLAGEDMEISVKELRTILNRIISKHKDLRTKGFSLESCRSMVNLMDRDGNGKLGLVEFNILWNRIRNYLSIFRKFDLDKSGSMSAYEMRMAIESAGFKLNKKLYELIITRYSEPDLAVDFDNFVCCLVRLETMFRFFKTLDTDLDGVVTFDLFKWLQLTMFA
Assay: Inhibition of human erythrocytes calpain-1 using Suc-Leu-Tyr-AMC as substrate by kinetic fluorescence assay
Conditions: read-out: Ki
pKi: −log10 of the molar value.
Quantity Name: pKi

[[record]]
compound = "CCCCC(NC(=O)c1cccnc1-n1cc(-c2ccccc2)cn1)C(=O)C(N)=O (stereo not given)"
obs_value = 7.70

[[record]]
compound = "NC(=O)C(=O)C(Cc1ccccc1)NC(=O)c1cccnc1-n1ccc(-c2ccc(Cl)cc2)n1 (stereo not given)"
obs_value = 7.06

[[record]]
compound = "CN1CCC(c2ccn(-c3ncccc3C(=O)NC(Cc3ccccc3)C(=O)C(N)=O)n2)CC1 (stereo not given)"
obs_value = 6.84

[[record]]
compound = "NC(=O)C(=O)C(Cc1ccccc1)NC(=O)c1ccccc1-c1csc(-c2ccccc2)n1 (stereo not given)"
obs_value = 7.09

[[record]]
compound = "NC(=O)C(=O)C(Cc1ccccc1)NC(=O)c1cccnc1-n1cc2c(n1)-c1ccccc1OC2 (stereo not given)"
obs_value = 8.10


----------
Target: Calpain-1 catalytic subunit (Homo sapiens)
Test: Inhibition of human erythrocytes calpain-1 using Suc-Leu-Tyr-AMC as substrate by kinetic fluorescence assay
Conditions: read-out: Ki(app)
Quantity Name: Ki (nM)

[[record]]
structure_string = "NC(=O)C(=O)[C@H](Cc1ccccc1)NC(=O)c1cccnc1-n1ccc(-c2ccccc2)n1"
target_or_system = "Calpain-1 catalytic subunit (Homo sapiens)"
quantity_name = "Ki"
unit_name = "nM"
obs_value = 10


----------
This document collects Ki values reported for Cathepsin S (Homo sapiens).
Quantity Name: Ki (µM)

[[record]]
compound = "CCN(CC)Cc1ccc(/C=C/c2ccccc2C(=O)NC(Cc2ccccc2)C(=O)C(N)=O)cc1 (configuration not stated)"
unit_name = "µM"
obs_value = 3.29

[[record]]
compound = "NC(=O)C(=O)C(Cc1ccccc1)NC(=O)c1cccnc1N1CCN(c2ccccc2)CC1 (configuration not stated)"
unit_name = "µM"
obs_value = 7.26


----------
Molecular target: Calpain-1 catalytic subunit (Homo sapiens)
Experiment: Inhibition of human erythrocytes calpain-1 using Suc-Leu-Tyr-AMC as substrate in presence of up to 10 mM glutathione by kinetic fluorescence assay
Active and inactive are the calls of the source. The calls are words filed in the database; no cut-off is given here.
Quantity Name: inhibition

[[record]]
molecule = "NC(=O)C(=O)C(Cc1ccccc1)NC(=O)c1cccnc1-n1ccc(C2CCOCC2)n1 (centres undefined)"
quantity_name = "inhibition"
obs_value = "Active"

[[record]]
molecule = "CC(C)(C)c1ccn(-c2ncccc2C(=O)NC(Cc2ccccc2)C(=O)C(N)=O)n1 (centres undefined)"
quantity_name = "inhibition"
obs_value = "Active"

[[record]]
molecule = "NC(=O)C(=O)C(Cc1ccccc1)NC(=O)c1cccnc1-n1cc(-c2ccccc2)cn1 (centres undefined)"
quantity_name = "inhibition"
obs_value = "Active"

[[record]]
molecule = "NC(=O)C(=O)C(Cc1ccccc1)NC(=O)c1ccccc1-c1csc(-c2ccccc2)n1 (centres undefined)"
quantity_name = "inhibition"
obs_value = "Active"

[[record]]
molecule = "CCCCC(NC(=O)c1cccnc1-n1ccc(-c2ccccc2)n1)C(=O)C(N)=O (centres undefined)"
quantity_name = "inhibition"
obs_value = "Active"

[[record]]
molecule = "NC(=O)C(=O)C(Cc1ccccc1)NC(=O)c1cccnc1-n1ccc(Cc2ccccc2)n1 (centres undefined)"
quantity_name = "inhibition"
obs_value = "Active"

[[record]]
molecule = "CN1CCC(c2ccn(-c3ncccc3C(=O)NC(Cc3ccccc3)C(=O)C(N)=O)n2)CC1 (centres undefined)"
quantity_name = "inhibition"
obs_value = "Active"

[[record]]
molecule = "NC(=O)C(=O)C(Cc1ccccc1)NC(=O)c1cccnc1-c1csc(-c2ccccc2)n1 (centres undefined)"
quantity_name = "inhibition"
obs_value = "Active"

[[record]]
molecule = "CCCCC(NC(=O)c1cccnc1-c1csc(-c2ccccc2)n1)C(=O)C(N)=O (centres undefined)"
quantity_name = "inhibition"
obs_value = "Active"

